- SUBJECT OF TEST: recombinant HIV-1 reverse transcriptase (RTHXB2) (Human immunodeficiency virus type 1 group M subtype B, UniProt P04585)
- Construct: The enzyme is derived from a polyprotein encoded by the virus, processed by the viral protease
- ASSAY TEXT: Reverse transcriptase inhibition activity (RDDP, [3H]dTTP incorporation)
- Type: biochemical
- CONDITION SUMMARY: 50% inhibitory concentration, mean of three independent experiments; read-out: CI50 (the source's name)
// values below are reported IC50
Just the number in nM, nothing appended.

Use the examples below as a reference point.
Ask | Given C[C@H](Cn1cnc2c(N)ncnc21)OCP(=O)(O)O [Tenofovir, reference compound] , state its recorded IC50.
Reply | 1200

Ask | Given CCOP(=O)(Cn1cc(CN2C(=O)C(F)(F)c3cc(Cl)ccc32)nn1)OCC , state its recorded IC50.
Reply | 900

Ask | Given CCOP(=O)(Cn1cc(CN2C(=O)C(O)(C#CC3CC3)c3cc(Cl)ccc32)nn1)OCC (stereo not shown) , state its recorded IC50.
Reply | 3200

Let us move to another entry and its IC50.
Ask | Given Cc1cn(C2CC(n3cc(CN4C(=O)C(F)(F)c5cc(Cl)ccc54)nn3)C(CO)O2)c(=O)[nH]c1=O (stereo not shown) , state its recorded IC50.
Reply | 800

----------
// values below are reported pIC50
- SUBJECT OF TEST: recombinant HIV-1 reverse transcriptase (RTHXB2) (Human immunodeficiency virus type 1 group M subtype B, UniProt P04585)
- Construct: The enzyme is derived from a polyprotein encoded by the virus, processed by the viral protease
- ASSAY TEXT: Reverse transcriptase inhibition activity (RDDP, [3H]dTTP incorporation)
- Type: biochemical
- CONDITION SUMMARY: 50% inhibitory concentration, mean of three independent experiments; read-out: CI50 (the source's name)
The value called pIC50 is obtained by taking minus log10 of the concentration in mol/L.

Ask | Given CCOP(=O)(Cn1cc(CN2C(=O)C(F)(F)c3ccccc32)nn1)OCC [IIId] , state its recorded pIC50.
Reply | 5.92

Ask | Given Cc1cn(C2CC(n3cc(CN4C(=O)C(F)(F)c5ccccc54)nn3)C(CO)O2)c(=O)[nH]c1=O (stereo not shown) [IIIa] , state its recorded pIC50.
Reply | 6.22

Ask | Given Cc1ccc2c(c1)C(F)(F)C(=O)N2Cc1cn(C2CC(n3cc(C)c(=O)[nH]c3=O)OC2CO)nn1 (stereo not shown) [IIIb] , state its recorded pIC50.
Reply | 5.49

Let us move to another entry and its pIC50.
Ask | Given CCOP(=O)(Cn1cc(CN2C(=O)C(F)(F)c3cc(C)ccc32)nn1)OCC [IIIe] , state its recorded pIC50.
Reply | 5.66

----------
- ASSAY TEXT: Cytotoxicity assay (MTT)
- Assay type: cell-based
- CONDITION SUMMARY: human
PROPERTY: CC50 at 72 h (µM)
Just the number in µM, nothing appended.

Ask | Given Cc1cn([C@H]2C[C@H](N=[N+]=[N-])[C@@H](CO)O2)c(=O)[nH]c1=O [Zidovudine, reference compound] , state its recorded CC50 at 72 h.
Reply | 126

----------
- SUBJECT OF TEST: recombinant HIV-1 reverse transcriptase (RTHXB2) (Human immunodeficiency virus type 1 group M subtype B, UniProt P04585)
- Construct: The enzyme is derived from a polyprotein encoded by the virus, processed by the viral protease
- ASSAY TEXT: Reverse transcriptase inhibition activity (RDDP, [3H]dTTP incorporation)
- Type: biochemical
- Procedure: Reverse Transcriptase Inhibition Activity The RDDP activity was determined in 50 mM Tris HCl (pH 7.8), 6 mM MgCl2, 1 mM dithiothreitol, 50 mM KCl, 5 μM dTTP, […] poly (rA) oligo (dT) template primer (Pharmacia, Piscataway, N.J., USA) and 3 U of enzyme (one unit is the enzyme concentration incorporating dTTP […] per minute per mg of enzyme at 37° C. under standard conditions). […] The incorporated nucleotides were measured by liquid scintillation. […]
# label = y if IC50 < 1000 nM else n

# count of solved cases: 3
Ask | Decide: IC50 of CC(C)CN(CC(O)C(Cc1ccccc1)NC(=O)OC1CCOC1)S(=O)(=O)c1ccc(-n2cc(CN3C(=O)C(=O)c4ccccc43)nn2)cc1 (centres unmarked) [Id] strictly below 1000 nM?
Reply | n

Ask | Decide: IC50 of CCOP(=O)(Cn1cc(CN2C(=O)C(=O)c3cc(Cl)ccc32)nn1)OCC [Ih] strictly below 1000 nM?
Reply | n

Ask | Decide: IC50 of Cc1ccc2c(c1)C(=O)C(=O)N2Cc1cn(-c2ccc(S(=O)(=O)N(CC(C)C)CC(O)C(Cc3ccccc3)NC(=O)OC3CCOC3)cc2)nn1 (centres unmarked) [Ie] strictly below 1000 nM?
Reply | y

Others:
Ask | Decide: IC50 of Cc1cn(C2CC(n3cc(CN4C(=O)C(=O)c5ccccc54)nn3)C(CO)O2)c(=O)[nH]c1=O (centres unmarked) [Ia] strictly below 1000 nM?
Reply | n

Ask | Decide: IC50 of Cc1cn(C2CC(n3cc(CN4C(=O)C(O)(C#CC5CC5)c5cc(Cl)ccc54)nn3)C(CO)O2)c(=O)[nH]c1=O (centres unmarked) [IIc] strictly below 1000 nM?
Reply | n

Ask | Decide: IC50 of Cc1ccc2c(c1)C(=O)C(=O)N2Cc1cn(C2CC(n3cc(C)c(=O)[nH]c3=O)OC2CO)nn1 (centres unmarked) [Ib] strictly below 1000 nM?
Reply | n

Ask | Decide: IC50 of CCOP(=O)(Cn1cc(CN2C(=O)C(=O)c3cc(C)ccc32)nn1)OCC [Ig] strictly below 1000 nM?
Reply | y

Ask | Decide: IC50 of Cc1ccc2c(c1)C(O)(C#CC1CC1)C(=O)N2Cc1cn(C2CC(n3cc(C)c(=O)[nH]c3=O)OC2CO)nn1 (centres unmarked) [IIb] strictly below 1000 nM?
Reply | n

Ask | Decide: IC50 of Cc1cn(C2CC(n3cc(CN4C(=O)C(O)(C#CC5CC5)c5ccccc54)nn3)C(CO)O2)c(=O)[nH]c1=O (centres unmarked) [IIa] strictly below 1000 nM?
Reply | n

Ask | Decide: IC50 of Cc1cn([C@H]2C[C@H](N=[N+]=[N-])[C@@H](CO)O2)c(=O)[nH]c1=O [Zidovudine, reference compound] strictly below 1000 nM?
Reply | y

Ask | Decide: IC50 of CCOP(=O)(Cn1cc(CN2C(=O)C(=O)c3ccccc32)nn1)OCC [If] strictly below 1000 nM?
Reply | n

Ask | Decide: IC50 of CCOP(=O)(Cn1cc(CN2C(=O)C(O)(C#CC3CC3)c3ccccc32)nn1)OCC (centres unmarked) [IId] strictly below 1000 nM?
Reply | n

Ask | Decide: IC50 of CCOP(=O)(Cn1cc(CN2C(=O)C(O)(C#CC3CC3)c3cc(C)ccc32)nn1)OCC (centres unmarked) [IIe] strictly below 1000 nM?
Reply | n

Ask | Decide: IC50 of Cc1cn(C2CC(n3cc(CN4C(=O)C(=O)c5cc(Cl)ccc54)nn3)C(CO)O2)c(=O)[nH]c1=O (centres unmarked) [Ic] strictly below 1000 nM?
Reply | n

Values were extracted from patent US10538515B2.
